Test system: K562/ADR human myeloid leukemia cell line
Experiment: MTT antiproliferative assay, K562/ADR
Assay type: cell-based
Procedure: […] Medium in wells was replaced after 24 h with fresh medium containing the tested compounds in DMSO (1% v/v) and incubated for 72 h. […] The absorbance at 540 nm was determined in each well with a 96-well plate reader. […]
pIC50: −log10 of the molar value.
REPORTED ENDPOINT: pIC50

Known results for compounds:
Give the reported pIC50 for CCON=C1C(=O)N(CCC(=O)OC2O[C@@H]3O[C@@]4(C)CC[C@H]5[C@H](C)CC[C@@H]([C@H]2C)[C@@]35OO4)c2ccc(F)cc21 (some centres unmarked) [hybrid 7i] (system: K562/ADR human myeloid leukemia cell line). < 4.00

Would you kindly repeat that for COc1cccc2c1C(=O)c1c(O)c3c(c(O)c1C2=O)C[C@@](O)(C(=O)CO)C[C@@H]3O[C@H]1C[C@H](N)[C@H](O)[C@H](C)O1 [Adriamycin, reference compound] ? < 4.00

Would you kindly repeat that for CCON=C1C(=O)N(CCCC(=O)OC2O[C@@H]3O[C@@]4(C)CC[C@H]5[C@H](C)CC[C@@H]([C@H]2C)[C@@]35OO4)c2ccc(F)cc21 (some centres unmarked) [hybrid 7q] ? < 4.00

Next:
Give the reported pIC50 for CON=C1C(=O)N(CC(=O)OC2O[C@@H]3O[C@@]4(C)CC[C@H]5[C@H](C)CC[C@@H]([C@H]2C)[C@@]35OO4)c2ccc(F)cc21 (some centres unmarked) [hybrid 7c] (system: K562/ADR human myeloid leukemia cell line). < 4.00

Would you kindly repeat that for CCON=C1C(=O)N(CCCC(=O)OC2O[C@@H]3O[C@@]4(C)CC[C@H]5[C@H](C)CC[C@@H]([C@H]2C)[C@@]35OO4)c2ccccc21 (some centres unmarked) [hybrid 7n] ? < 4.00

Taken from paper PMC10140581.
